The measured values listed here are drawn from the supplement of paper PMC11451515.

- Tested on: SEM cells
- assayRemarks: cell viability relative to DMSO control; higher = less cytotoxic
- recordedConditions: RPMI 5 mM glucose + 10% FBS; 48 h; 1.71 µM

molecule	cell viability (%)
COc1ccc(CCN2CCN(CCCc3ccccc3)CC2)cc1OC	129
Cc1c[nH]c(/C=C2\C(=O)Nc3ccccc32)c1CCC(=O)O	34.1
COc1cc2nccc(Oc3ccc(NC(=O)C4(C(=O)Nc5ccc(F)cc5)CC4)cc3)c2cc1OC	51.7
Cc1ccc(C(C)(O)c2nc3ccccc3s2)c(C)c1 (stereo not given)	70.7
O=C(NC1CCOCC1)c1ccc(-c2cc(-c3c[nH]nc3-c3ccccn3)ccn2)cc1	120
COc1cc2nccc(Oc3ccc(NC(=O)Nc4cc(C)on4)c(Cl)c3)c2cc1OC	49.6
CNC(=O)[C@H](Cc1ccccc1)NC(=O)[C@H](CC(C)C)[C@H](CSc1cccs1)C(=O)NO	97.6
CN(C)CCOC(c1ccccc1)c1ccccc1	117
Nc1ccccc1NC(=O)c1ccc(CNc2nccc(-c3cccnc3)n2)cc1	21.8
C[C@H]1CN(C[C@@H](C)O1)CC(=O)NC2=CC=C3SC4=C(CC3=C2)C=CC=C4\C5=C\C(=O)\C=C(/O5)N6CCOCC6	81.9
CN(C)Cc1ccc(-c2nc3cccc4c3n2CCNC4=O)cc1	120
COc1cc2c(Nc3ccc(NC(=O)c4ccccc4)cc3)ncnc2cc1OCCCN1CCOCC1	122
CCCCCCCCCCCC(CC1OC(=O)C1CCCCCC)OC(=O)C(CC(C)C)NC=O (stereo not given)	76.2
CCC(=O)O[C@@]1([C@@H](C)C[C@H]2[C@@H]3CCC/4=C/C(=O)/C=C\[C@]4(C)[C@@]3(F)[C@@H](O)C[C@]12C)C(=O)CCl	66.1
COC(=O)N1CCN(Cc2cccc(NC(=O)Nc3ccc(C)nc3)c2F)CC1	114
O=C/1\C=C(/OC(=C1)/C2=C3SC4=C(SC3=CC=C2)C=CC=C4)N5CCOCC5	105
CN(N=O)C(=O)N[C@H]1C(O)OC(CO)[C@@H](O)[C@@H]1O (stereo not given in full)	108
C[C@]\1(CCS\C(=N1)N)C2=CC(=C(F)C=C2F)C3=CN=CN=C3	114
Cc1ccc(NC(=O)C2(c3ccc4c(c3)OC(F)(F)O4)CC2)nc1-c1cccc(C(=O)O)c1	10.5
COc1cc2nccc(Oc3ccc(NC(=O)Nc4ccc(F)cc4F)c(F)c3)c2cc1OC	51.6

###

- Test system: P12-Ichikawa
- assayRemarks: cell viability relative to DMSO control; higher = less cytotoxic
- recordedConditions: RPMI 5 mM glucose + 10% dialyzed FBS; 48 h; 5.12 µM
Hi! Could you tag entries with cell viability below 70% as yes, and those at or above as no? Much appreciated.

entrySmiles	answerLabel
CCC(=O)O[C@@]1([C@@H](C)C[C@H]2[C@@H]3CCC/4=C/C(=O)/C=C\[C@]4(C)[C@@]3(F)[C@@H](O)C[C@]12C)C(=O)CCl	yes
CC#C[C@]1(O)CC[C@H]2[C@@H]/3CCC/4=C/C(=O)CCC4=C3[C@H](C[C@]12C)C5=CC=C(C=C5)N(C)C	no
O=C1c2c(O)cccc2[C@H]([C@@H]2O[C@H](CO)[C@@H](O)[C@H](O)[C@H]2O)c2cc(CO)cc(O)c21	no
Cc1ccc(NC(=O)c2ccc(CN3CCN(C)CC3)cc2)cc1Nc1nccc(-c2cccnc2)n1	no
CCC1=C[C@@H]2CN(C1)Cc1c([nH]c3ccccc13)[C@@](C(=O)OC)(c1cc3c(cc1OC)N(C)[C@H]1[C@@](O)(C(=O)OC)[C@H](OC(C)=O)[C@]4(CC)C=CCN5CC[C@]31[C@@H]54)C2	yes
O=C/1\C=C(/OC(=C1)/C2=C3SC4=C(SC3=CC=C2)C=CC=C4)N5CCOCC5	no
